B1: glmS ribozyme (parent)
chain: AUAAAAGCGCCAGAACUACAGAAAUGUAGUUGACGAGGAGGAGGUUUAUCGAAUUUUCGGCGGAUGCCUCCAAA

Variants of: B1
assay_remarks: self-cleavage kobs at 10000 uM GlcN6P; higher = faster cleavage; RNA array
condition_description: with glucosamine-6-phosphate
This sample holds only a part of the variants without activity.
# label = yes (1) if self-cleavage kobs at 10000 uM GlcN6P >= 0.0007 s⁻¹ else no (0)

The following variants have reported results that may help.
>>> label_value("A14C U46G")
"yes (1)"
>>> label_value("A14U A36G A64G C70G")
"no (0)"
>>> label_value("A14C A33U")
"no (0)"
>>> label_value("A42U U56A")
"no (0)"
>>> label_value("C11U G35A")
"no (0)"
>>> label_value("A39U G63U U65A")
"no (0)"

Query: Determine whether measured self-cleavage kobs at 10000 uM GlcN6P meets or exceeds 0.0007 s⁻¹ for G32A G66C
Response: no (0)

Query: Determine whether measured self-cleavage kobs at 10000 uM GlcN6P meets or exceeds 0.0007 s⁻¹ for U45G U65A
Response: yes (1)

Query: Determine whether measured self-cleavage kobs at 10000 uM GlcN6P meets or exceeds 0.0007 s⁻¹ for A14C A15G
Response: yes (1)

Query: Determine whether measured self-cleavage kobs at 10000 uM GlcN6P meets or exceeds 0.0007 s⁻¹ for U56G A64C
Response: no (0)
